- Experiment notes: soluble fraction after stress (log2 fold change); higher = more stays soluble; pooled small domains, quantitative proteomics
- Recorded conditions: stress: pH 4

# Biosequence, Inequality sign, soluble fraction (log2)
rows = [
    ("HMDGRVQATAEKLRAALDRLARSSVGSPMIERQLTVAALAREARVGRNAIYANHRDILDELIRVRQQRRA", "=", -0.309),
    ("HMDPSDQLYTVPPSAEGLRLDLFLVQHVPHMTRALATQLTGAGQVRVNGRRAKKGDRLPSGAQVRLEQAP", "=", -0.138),
    ("HMQAMDYEGFKKEILKMSDIDLSLYKEKQMKRRIDSLIRKNGYEHYEDYVQALKQDSGLYNEFINYLTI", "=", -1.33),
    ("HMRLSPTMVETLIAMLNRNAYPAYENNSRTFASLEERGLIQPDIEGNWSLTDTGHQTALKLLK", "=", 0.0279),
    ("HMSTANIVVPDVKGKTFEEAKKAIEAEGLTAKAEGDESGVVQKTSPSYGVSVESGSEVTLTLVKSDD", "=", 0.0493),
    ("HMNYTSEDIKLASELFFHLLNNRILPANDVLASQYYDNNEIREILENMAEEGGLRIFGTRENLHLVSNGE", "=", -1.21),
    ("HMVIVGGDVIVHYVDTEGKKISDDVVKSGNVGEDYSTDQKTILGYRFKEVQGNTSGKFTDKTQVVTYIYT", "=", 0.179),
    ("HMDWVAYGAELRRRRLLAGWSVAELSRRTNLSTSIIYQVEQARTRLRPSQLTLAKLAAALGMP", "=", -0.0217),
    ("HMDKFTYVVKKEDEQYQIKDILRHNFTFSSRLRKKLKQNNSIFLNGAETVGWATPKEGDIISVRLP", "=", 0.219),
    ("HMVIDFYDPQTKVIHEIKKSSAKEEAHVWQVKYYIYLFEKEEIMGVKGVLEYPLLREIVSVNF", "=", -0.0844),
    ("HMGNIYKALLGKLEKQLGFLPEGTKLPPEQELAEKFGVSKPTLRRALAELAVRGIIVKQNGIGSVVAGS", "≥", 0.43),
    ("HMSDRLRPGDMVVVVGKKKRYPVFSAFDIDFVEAGDVGKVLTVKREEVVVGFPKKGEGTFTPSELNIAH", "=", 0.00331),
    ("HMNVTIGESIKNVINHYGTPIYSYNPNNQEKYYEFHTNKGVLVVTAIGKKNTGYVTRVSMTY", "=", -0.175),
    ("HMSEQVTMIDVEGKTETEAKKALEDLGLKVEITYESADAAAGTVIGQDVKAGSTVSEGSRVTLTVSGQ", "=", -0.211),
    ("HMNFTETENRIYEEILKNVKQHKKKTVVQIAEKVDVAPSYVIKVAKKLGYSGLNEMWYSLSGIY", "=", -0.0318),
    ("HMEELPVLHLKHVVVEGESLWKLAEQYLNDGTRWQEIYMLNRENISNPDLIREGQELNIQFLQGE", "=", -1.05),
    ("HMPSSQQVMRRLATVGPDKTLEELQRQHDAHLRKYGEFNDFRGERQQMRQEMERIKEAKQGTGPYAHLMG", "=", -0.0742),
    ("HMNVAVPTPADKRKVRVMKADINAKLRVNDANGAYAVYEELKEWVTLKGFTEWNDDLSKLSETMGSMKRKV", "=", -0.0387),
    ("HMVSRVTTPGVVGKTWQETKQILKQADLTVGSLTRDGKDVTPADGDLVTAQNPSAGQAIVRGSSVDLTFDK", "=", 0.0198),
    ("HMPYNNLADAPASWKKLDDTPLTLGQVNWIAKIYDALVAKGMEKGAAAGTAISRFKKSFKVADGKWVQV", "=", 0.173),
    ("HMNIGEKIKKIRTQQNKSTYELADIINKNGFKISQSAISKIENGRKKIDIETLEEIAKALDIEVDLLIT", "=", -0.282),
    ("HMKPSNRSYPTALRMEVIGIIRERYADFGPTLAGEKLAELHGIHLGRETIRQWMMAAGLWKDRR", "=", -0.759),
    ("HMGESFPYVAYATDSVRLRARPSSSATILTVIRKGDAVLITGADGSYKIVEYEGRKGYVVSAFLSSQET", "=", -0.00452),
    ("HMEPREEFTFADLRANGLNGTAAAAGRRAALGAALGIGYGNAKQFLRRLNHYGVTRSEWEAALADLDE", "=", -0.0963),
    ("HMFMMVAGHLQIKNEKYYMVLELRTEQGERKTKWIGTGLAVKGNKRRAEAMLEETRTKYLSPV", "=", -0.177),
    ("HMADKSLLELPGLDGDKVSALVTAGVRNVNDLADLATDELVEKTGFDEKTAADLIIAARAVVY", "=", -0.283),
    ("HMRADRLISMLMLLQARGKITAEELAVELGVSQRTIYRDIEALSFAGVPVYAERGPGGGIGLLEPY", "=", -1.21),
    ("HMPSLSAILHDARVAAGLSMRQASAASGLSIGFISMLEQGKVQDISLQRLGRLVTAYDLEPLDVIEAAG", "=", -0.848),
    ("HMFPELNAEETQVVQLLQKQTEGMQVNSLVVESNIPITRMSGILFELELKGIIRNYAGGVYKL", "=", -0.951),
    ("HMVDPELFIWVESSKEPVYHLAYKIELFVHSTDPQDDVPVHRWQVFVDAHNGNILDKFDEVR", "=", -1.65),
    ("HMKRNLESVLDHIEGIGPKRRKALYKHFGNLDAMRVAELEELESVEGMNKKAALAVYEFFRRNS", "=", 0.411),
    ("HMLIIDLPDFTNKKLSELQQWADANQITLKIVEKDVSSKPYDTILEQTPAKNKYEKIVKGSTMTVTVNIK", "=", -0.272),
    ("HMKQPNFTVIETKILELLFQKDLSSREMQEILKISKDNLIFALQNLLEQEKIVLQTSNTYTVN", "=", -2.02),
]

---

- Experiment notes: soluble fraction after stress (log2 fold change); higher = more stays soluble; pooled small domains, quantitative proteomics
- Recorded conditions: stress: pH 4
Recorded soluble fraction (log2), one value per entry.
Observation type: soluble fraction (log2)

# Biosequence, Observation type, Recorded value
data = [
    ("HMRSVEVAAEPGMVLEDRQTGFVGAVVAVEKSGGTHLVVLEDRHGLRRGFPLGPGFWLEGRPVVLAPPP", "soluble fraction (log2)", -0.141),
    ("HMFIVTDQMQRVLDYITEKEKATNNDLEELLGVKSTRIYTITRKLIQHNLIIPVGKGKNKYYIL", "soluble fraction (log2)", -0.724),
    ("HMPTTRPEAEAHYETHQRYHDLQIDVEGREAFKVATGSLTLVQEFDEKDDYDLSIPTPRSPAILLTT", "soluble fraction (log2)", -0.208),
    ("HMGQAELPYSEFLREVNNGQVKSVIIEGSEITGFYKTSGTSFNVIAPDDPKLVERLMAQGVEVRAQPA", "soluble fraction (log2)", 0.239),
]

---

Let's look at some sequences and their measured soluble fraction (log2).
- Experiment notes: soluble fraction after stress (log2 fold change); higher = more stays soluble; pooled small domains, quantitative proteomics
- Recorded conditions: stress: pH 4

# Biosequence, soluble fraction (log2)
measured = [
    ("HMGGVTVQNRETHVNSTVNVRSEQTTESERVALAYQGDAITQIESYENGWSKVEYKGLSGYVMTEYL", -0.819),
    ("HMADFYEVLGVERNASSDQIKRAYRKLARELHPDVNLDPVAQNRFKEVTEAYEVLSDPNKRSNFDRG", -0.0615),
    ("HMDEYGEVQALQRAGQTSEALARADRHIAAHPNDPQMRFVKANLLSAGGRAGEAETLLVQLTRD", -0.176),
    ("HMLKNKSTGNINETKAILELALNHSHFKVFDNRDMTVTFKNLATQFTTMQRILVQMFFPLPAGVELIIE", 0.268),
    ("HMPKTATIVIDLNYADAKEIVENLQTILAGETKDISVAPHPSANQIIASGDRWEVENISTIIKQLDR", -1.02),
    ("HMSTVTEVHYIAFKNGRIVDIKAALTGSAVTATSIKEQPKIENYNYTTSEVRDGILYHTYAPVA", 0.195),
    ("HMGASGVEVPDVAGMSTAQAVSSLEQKGFVVNRTESYDAGVEKGNVISQSPEGGTKAPNGSAVTIRISQGA", 0.081),
    ("HMAETLRLVGATNLNTLARARHPDDLAARNEFRRAIAQANPALFAGKSKVGSVSLPAGTVLALPPEV", "≥ 0.43"),
    ("HMKEKLGEFENVFLSVDELQKLKSKLGAETESYIERLSNYIASSGKKYKSHYATILSWTQKDTK", -0.644),
    ("HMEDNKLKNEIKNELVSHLEKPYSVEDLADALKYHGSAAFKLIVQELAILERERAVVVTHDGNFKINSS", -0.0181),
    ("HMYVTGETIRHLRTQRRMTQEQLAETLGVTGKAVSKWETGRGFPDMSLLEPLARALRISVPELLSGE", 0.0292),
    ("HMASLASVAYETLRQALDNFQYVPGDRFSESEVGQQLGMSRTPVREALVRLQREGYISVLPKMGWVVNQ", -0.953),
    ("HMGKSDDSLAAEKFIQHVRKNGELSYEQAYRMVHAYFPDFRNFEGMVSGAVKSGYLILIQKSTGLFLRAKE", -0.205),
    ("HMGMKTSQKLARQREIVRLIRAQTIRTQAELADALRERAFPVSQPTLSKDIAELGLIKVPLPDSGYRYQLP", -0.105),
    ("HMQESTILPAQKSAISSLATSAGFSSENLKRYLLQNYGVDLKDLTRSQGAEVIKAFQSGNVSKP", 0.246),
    ("HMEMLQENIRNLRKAKGWSQEELAIKLNVVRQTVSKWEKGLSVPDSQMLIRIADELDTTVAILLG", 0.253),
    ("HMSERQTGTVKWFNNAKGFGFITMADRPDDIFVHFRAIQGDGYRSLNEGEEVEFSLVEGPKGLQAEEVTK", -1.09),
    ("HMDPLASLTPREREVLSLMAQGLSNLAVAERLVVSAGAVEKHISSIFTKLDLAPSEHEHRRVLAVLRYVAG", -2.09),
    ("HMNSRAERKEAAKEAIRNLLREGMTFEELTGPWLEKRFAEEPFNRGARSWQMLISEIKEEPEFQHL", -0.916),
    ("HMINIGANIRAIRKQKNIKQVDLVRLLQLEGVEITRETLVKIESGVQHIKASQLRGIRDALGTTYDELL", -0.863),
    ("HMDSLEIEEPITVKSLSAASGLKISDIIRKLMQEGIMATANQVIDREQAEAVLIDYNVDLVVKR", 0.0392),
    ("HMSMSLQFLSRRIRLQREKRGLKQHDIAHALQISPQAVSKWERGENAPDIALLRPLAGLLGVSIDWLMGGD", -1.7),
    ("HMGGNKILTWKTDAATTRNQVPINERKEGLEISYKNEERNWVAEKYVGTSFSDDKWGVDYNWNQD", -0.559),
    ("HMKHSLNHLGLWLLPELSRRDIQLREFAHLLGTTSQGLSDLLRGQRFSSHTLAQWQLRFQEKLDEIDQAS", -0.236),
    ("HMEDKIIVTVPGEYHLERIDRFLAANLEEDLSRSLIQRYIRENLITVNGEAVRANYKVKTDDEILITFPQ", -1.04),
    ("HMREYRITAEEGHPRIDVFLAGRPEIGLSRSRIQALIDEGQVTLNGAMPKARQAVNPGDVIVVRVPDPE", -0.336),
    ("HMQKITPDNWTYIRSLIRQKWSPDQIDQWLKKHPDVGFTVSRETIYQYVKEDRQKDGDLYLSLRRAGKSY", -1.11),
    ("HMKRNTKAEVLEILLNSGETPVSGERLAENLGISRNAVWKAVTALKEDGYNISAKRNSGYILNKS", 0.376),
    ("HMKKQLKSEAVADELRRKILSGGFPDKRLPRKDELTEYFQVSQKTVEAALKMLTAEGLIRGVKGTGIFVNG", 0.156),
    ("HMTVGEKIQYYRKKIGLSQEELGQKMLLSRQTISLWEMDKTLPTVDNLLRLKEIFSVSIDELLSENEPK", -0.257),
    ("HMVKVSVYPNPAVDRITISGEVKAYAVYDATGKVVMKDTDYRGGAIGVSHLPAGIYIVRTDAGAVTVNK", -0.246),
    ("HMTIRPEDVELVPAEDGYMQGDVVSNIFKGVHYELEVKANGYDWMVHTTKYVEVGSHVGIKVIPFNIQV", 0.22),
    ("HMDPFAYEVKVTDLAAGSSEIRTVYTEQGSFNIPSGMSGNLKIQVRSASMYDEVEPSDWYTIGEEDIN", -0.461),
]
